Item-by-item account of growth inhibition by drug plus 177Lu-lilotomab satetraxetan
# Test system: RIVA
# assay: growth inhibition by drug plus 177Lu-lilotomab satetraxetan (1 - RLU/untreated control) (fraction); higher = stronger inhibition
# experimental.conditions: 10 nM; time (day): 3; 177Lu-lilotomab satetraxetan 0.5 ug/ml
Write the number on its own, no unit after it.

# example entries with known answers
I am curious: what growth inhibition by drug plus 177Lu-lilotomab satetraxetan value has been reported for Cc1nc(-c2ccc(OCC(C)C)c(C#N)c2)sc1C(=O)O ?
0.368

I am curious: what growth inhibition by drug plus 177Lu-lilotomab satetraxetan value has been reported for CC[C@H](Nc1ncnc2[nH]cnc12)c1nc2cccc(F)c2c(=O)n1-c1ccccc1 ?
0.367

I am curious: what growth inhibition by drug plus 177Lu-lilotomab satetraxetan value has been reported for O=NN(CCCl)C(=O)NC1CCCCC1 ?
0.573

I am curious: what growth inhibition by drug plus 177Lu-lilotomab satetraxetan value has been reported for CNC(=O)c1cc(Oc2ccc(NC(=O)Nc3ccc(Cl)c(C(F)(F)F)c3)c(F)c2)ccn1 ?
0.632

I am curious: what growth inhibition by drug plus 177Lu-lilotomab satetraxetan value has been reported for COc1cc(OC2CCN(C)CC2)ccc1Nc1ncc2c(n1)n(C1CCCC1)c(=O)n2C ?
0.539

***
I am curious: what growth inhibition by drug plus 177Lu-lilotomab satetraxetan value has been reported for CN(C)CCCN=c1c2ccccc2n(C)c2[nH]c(=O)n(C)c(=O)c12 ?
0.529

I am curious: what growth inhibition by drug plus 177Lu-lilotomab satetraxetan value has been reported for CS(=O)(=O)c1cccc(CNc2nc(Nc3ccc4c(c3)CCC(=O)N4)ncc2C(F)(F)F)c1 ?
0.467

I am curious: what growth inhibition by drug plus 177Lu-lilotomab satetraxetan value has been reported for COc1cc(Nc2ncc3c(n2)-c2ccc(Cl)cc2C(c2c(F)cccc2OC)=NC3)ccc1C(=O)O ?
0.398

I am curious: what growth inhibition by drug plus 177Lu-lilotomab satetraxetan value has been reported for FC(F)c1nc2ccccc2n1-c1nc(N2CCOCC2)nc(N2CCOCC2)n1 ?
0.45
